In this section we review reported growth inhibition values for a set of compounds.
# protocol: NCI Yeast Anticancer Drug Screen. Data for the mec2-1 strain (AID 157)
# settings: S. cerevisiae mec2-1 strain, at 50.0 µM, active compounds read high
Compounds without any hit were thinned out: in the full panel of roughly 79,000, 15% have a hit.
readout: growth inhibition (%)

[
  {
    "compound": "COc1cc2c(cc1OC)[C@@H]1C(=O)c3ccc4c(c3O[C@@H]1CO2)C[C@H](C(C)C)O4",
    "unit_info": "%",
    "value_observed": -40.2
  },
  {
    "compound": "Cc1c2ccncc2c(C)c2c1[nH]c1ccccc12",
    "unit_info": "%",
    "value_observed": 89.5
  },
  {
    "compound": "N#CCC#N",
    "unit_info": "%",
    "value_observed": -3.95
  },
  {
    "compound": "CC1(C)N=C(N)N=C(N)N1c1ccc(CCCCc2cc(Cl)ccc2S(=O)(=O)F)c(Cl)c1",
    "unit_info": "%",
    "value_observed": 99.7
  },
  {
    "compound": "CCOC(=S)S.[Pb]",
    "unit_info": "%",
    "value_observed": 21.8
  },
  {
    "compound": "O=NN(Cc1ccccc1)Cc1ccccc1",
    "unit_info": "%",
    "value_observed": 0.1
  },
  {
    "compound": "CCOC(=N)CC(O)C(Cl)(Cl)Cl (centres undefined)",
    "unit_info": "%",
    "value_observed": 1.7
  },
  {
    "compound": "O=P(N=C=S)(N=C=S)N=C=S",
    "unit_info": "%",
    "value_observed": 6.6
  },
  {
    "compound": "O=c1[nH]c2ccc([As](O)O)cc2[nH]1",
    "unit_info": "%",
    "value_observed": -14.9
  },
  {
    "compound": "CC12CCC3C(CC(N4CC4)C4(O)CC(O)CCC34C)C1CCC2=O (centres undefined)",
    "unit_info": "%",
    "value_observed": -10.2
  },
  {
    "compound": "NC(=O)CI",
    "unit_info": "%",
    "value_observed": 27.1
  },
  {
    "compound": "CCOC(=O)C(C#N)c1ccccc1 (centres undefined)",
    "unit_info": "%",
    "value_observed": 19.1
  },
  {
    "compound": "CC(C)(N)Cc1ccc(N)cc1",
    "unit_info": "%",
    "value_observed": -1.55
  },
  {
    "compound": "C[C@H](CCC1SC1(C)C)C1CCC2(C)C3=C(CC[C@]12C)[C@@]1(C)CC[C@H](O)C(C)(C)C1CC3 (some centres undefined)",
    "unit_info": "%",
    "value_observed": -11.2
  },
  {
    "compound": "C[N+]1([O-])C2CCC1CC(O)C2 (centres undefined)",
    "unit_info": "%",
    "value_observed": 7.55
  },
  {
    "compound": "NC(C/C=C/P(=O)(O)O)C(=O)O (centres undefined)",
    "unit_info": "%",
    "value_observed": -17.1
  },
  {
    "compound": "O=c1c2ccccc2[nH]c(=S)n1-c1cccc(Cl)c1",
    "unit_info": "%",
    "value_observed": 16.1
  },
  {
    "compound": "CCOP(=O)(OCC)/C(C#N)=C/c1ccco1",
    "unit_info": "%",
    "value_observed": -25.4
  },
  {
    "compound": "CC(=O)[CH-]C(C)=O.CC(=O)[CH-]C(C)=O.CC(=O)[CH-]C(C)=O.CCC(=O)O.[Zn+2].[Zn]",
    "unit_info": "%",
    "value_observed": -9.35
  },
  {
    "compound": "CC(=O)Nc1nn[nH]n1",
    "unit_info": "%",
    "value_observed": 14.4
  },
  {
    "compound": "Cc1cc(F)ccc1[As](=O)(O)O",
    "unit_info": "%",
    "value_observed": -1.95
  },
  {
    "compound": "CC(O)c1ccc(Br)cc1 (centres undefined)",
    "unit_info": "%",
    "value_observed": 13.3
  },
  {
    "compound": "O=C1c2ccccc2OP(=O)(OCC(F)(F)F)OC1(C(F)(F)F)C(F)(F)F (centres undefined)",
    "unit_info": "%",
    "value_observed": -54.7
  },
  {
    "compound": "CN(C1CCCC1)C1CCCC1",
    "unit_info": "%",
    "value_observed": -25.9
  },
  {
    "compound": "CCP(=S)(CC)P(=S)(CC)CC",
    "unit_info": "%",
    "value_observed": -21.4
  },
  {
    "compound": "COC12CC3(C)C(C4=CC(=O)OC4)CCC3(O)C3CCC4=CC(=O)CCC4(CO1)C32 (centres undefined)",
    "unit_info": "%",
    "value_observed": -10.2
  },
  {
    "compound": "CCC(C)(C)C(=O)Nc1cccc(OC(=O)NC)c1",
    "unit_info": "%",
    "value_observed": -9.1
  },
  {
    "compound": "Cc1ccc(S(=O)(=O)OCCN2CC2)cc1",
    "unit_info": "%",
    "value_observed": -12.2
  },
  {
    "compound": "CCOC(=O)c1ccccc1C(=O)OCC",
    "unit_info": "%",
    "value_observed": -2.65
  },
  {
    "compound": "c1c2c(cc3c1OCO3)-c1cc3ccc4c(c3c[n+]1CC2)OCO4",
    "unit_info": "%",
    "value_observed": -9.1
  },
  {
    "compound": "CC1(C[N+](C)(C)C)COC(C)(C)O1 (centres undefined)",
    "unit_info": "%",
    "value_observed": 11.6
  },
  {
    "compound": "[CH3][Sn]1([CH3])[O]C(=O)C(=O)[O]1",
    "unit_info": "%",
    "value_observed": 19.4
  },
  {
    "compound": "CCCCCCCCCCCCCCCC[As](CCCCCCCCCCCCCCCC)SC1OC(COC(C)=O)C(OC(C)=O)C(OC(C)=O)C1OC(C)=O (centres undefined)",
    "unit_info": "%",
    "value_observed": 3.55
  },
  {
    "compound": "COc1c2occc2c(CCl)c2ccc(=O)oc12",
    "unit_info": "%",
    "value_observed": 11.2
  },
  {
    "compound": "C[C@]12CCC(=O)C[C@@H]1CC[C@@H]1[C@@H]2CC[C@]2(C)[C@@H]3OCCC[C@H]3C[C@@H]12",
    "unit_info": "%",
    "value_observed": -0.5
  },
  {
    "compound": "Oc1cccc(/C=N\\NC(=S)NC2CN3CCC2CC3)c1 (centres undefined)",
    "unit_info": "%",
    "value_observed": -5.9
  },
  {
    "compound": "Cc1ccc(C(=O)Nc2ccc(CP(=O)(O)O)cc2)cc1NC(=O)c1cccc(NC(=O)Nc2cccc(C(=O)Nc3cc(C(=O)Nc4ccc(CP(=O)(O)O)cc4)ccc3C)c2)c1",
    "unit_info": "%",
    "value_observed": 0.95
  },
  {
    "compound": "O=C1NN2CCCN=C2c2cnccc21",
    "unit_info": "%",
    "value_observed": 4.5
  },
  {
    "compound": "Cc1cc(CCl)cc(=O)[nH]1",
    "unit_info": "%",
    "value_observed": -0.7
  },
  {
    "compound": "CCCCCC(=O)c1c(O)cc2c(c1O)C(=O)c1c(O)cc(O)cc1C2=O",
    "unit_info": "%",
    "value_observed": 2.25
  },
  {
    "compound": "CCOC(=O)/C=C/CP(=O)(OCC)OCC",
    "unit_info": "%",
    "value_observed": -11.5
  },
  {
    "compound": "NS(=O)(=O)c1cccc([As](=O)(O)O)c1",
    "unit_info": "%",
    "value_observed": 10.4
  },
  {
    "compound": "O/N=C(/C(=N/O)c1ccccc1)c1ccccc1.O/N=C(/C(=N/O)c1ccccc1)c1ccccc1.[Ni]",
    "unit_info": "%",
    "value_observed": -6.5
  },
  {
    "compound": "Nc1nc(CC(N)C(=O)O)c[se]1 (centres undefined)",
    "unit_info": "%",
    "value_observed": 28.4
  },
  {
    "compound": "c1ccc(P2(c3ccccc3)=NSN=S=N2)cc1",
    "unit_info": "%",
    "value_observed": -8.7
  },
  {
    "compound": "Cc1ccc(C)c(OP(=O)(Oc2cc(C)ccc2C)Oc2cc(C)ccc2C)c1",
    "unit_info": "%",
    "value_observed": -42.5
  },
  {
    "compound": "Cc1cc(NC(=O)/C=C/c2ccc([N+](=O)[O-])cc2Cl)ccc1S(=O)(=O)F",
    "unit_info": "%",
    "value_observed": -8.5
  },
  {
    "compound": "C/C=C/C(=O)[O-].N.N.N.N.N.[Co+3].[O-][Cl+3]([O-])([O-])[O-]",
    "unit_info": "%",
    "value_observed": -5.85
  },
  {
    "compound": "N#CCC(=O)c1ccccc1",
    "unit_info": "%",
    "value_observed": 29.9
  }
]
